The measurements presented in this section are drawn from patent US20220040297A1.

Measured ratio of amounts bound vs CE115HA000 of individual entries
molecular target: T1, CD3ε homodimer protein (human, UniProt P07766 23-126, limits assumed, sulfo-tag or biotin label in some ECL assays); assay: SPR, CD3ε homodimer on chip;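 note: biacore SPR with antibody variants flowed as analyte over amine-coupled CD3ε homodimer on a CM chip, bound amount of each single-residue H chain variant over that of parent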
T1 construct: also called human CD3ε homodimer protein; CD3 (CD3ε)
T1 sequence (P07766 23-126 limits assumed): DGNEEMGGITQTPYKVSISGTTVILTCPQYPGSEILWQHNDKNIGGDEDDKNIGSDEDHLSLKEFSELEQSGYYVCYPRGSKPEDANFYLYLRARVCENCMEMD
The answer should be a number; do not append a unit.

In the examples that follow, each entry is paired with its recorded ratio of amounts bound vs CE115HA000.
{"Binder": "CE115HA000 D101Y (antibody, name in Kabat numbering, V domains shown) VH: QVQLVESGGGVVQPGRSLRLSCAASGFTFSNAWMHWVRQAPGKGLEWVAQIKAKSNNYATYYAESVKGRFTISRDDSKNSLYLQMNSLKTEDTAVYYCRYVHYGAYYGVYAWGQGTTVTVSS VL: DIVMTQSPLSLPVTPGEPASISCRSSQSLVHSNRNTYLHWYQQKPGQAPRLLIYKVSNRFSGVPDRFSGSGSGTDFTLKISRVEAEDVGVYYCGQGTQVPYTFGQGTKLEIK", "ratio of amounts bound vs CE115HA000": 6.49}
{"Binder": "CE115HA000 S52cK (antibody, name in Kabat numbering, V domains shown) VH: QVQLVESGGGVVQPGRSLRLSCAASGFTFSNAWMHWVRQAPGKGLEWVAQIKAKKNNYATYYAESVKGRFTISRDDSKNSLYLQMNSLKTEDTAVYYCRYVHYGAYYGVDAWGQGTTVTVSS VL: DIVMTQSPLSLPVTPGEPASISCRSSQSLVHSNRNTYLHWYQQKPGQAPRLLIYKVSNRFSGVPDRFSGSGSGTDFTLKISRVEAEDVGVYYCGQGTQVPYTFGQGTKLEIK", "ratio of amounts bound vs CE115HA000": 1.19}

For CE115HA000 Y58D (antibody, name in Kabat numbering, V domains shown) VH: QVQLVESGGGVVQPGRSLRLSCAASGFTFSNAWMHWVRQAPGKGLEWVAQIKAKSNNYATDYAESVKGRFTISRDDSKNSLYLQMNSLKTEDTAVYYCRYVHYGAYYGVDAWGQGTTVTVSS VL: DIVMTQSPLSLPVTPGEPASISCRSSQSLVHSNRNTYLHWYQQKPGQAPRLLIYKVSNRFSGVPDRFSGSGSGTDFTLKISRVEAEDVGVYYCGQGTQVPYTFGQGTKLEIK , what is its reported ratio of amounts bound vs CE115HA000?
0.11
